Data credit: patent US10208033B2

Test system: Fusarium graminearumt
Assay: microbe, parasite or virus in culture
Assay type: cell-based
Conditions: 50 mg/kg
Examples of compounds with documented Bactericidal activity (%) Fusarium graminearumt follow.
Reply numerically in %, unit not repeated.

As a guide, the following entries are already answered.
COc1ccc(C=NNC(=O)[C@@H]2Cc3c([nH]c4ccccc34)[C@H](C)N2)cc1OC    30.8
C[C@@H]1N[C@H](C(=O)NN=Cc2cccs2)Cc2c1[nH]c1ccccc21    62.1
CC(=O)Oc1ccc2c(c1)[nH]c1c(C)nccc12    35.7
C[C@@H]1N[C@H](C(=O)NN=Cc2ccc(N(C)C)cc2)Cc2c1[nH]c1ccccc21    31.0
C[C@@H]1N[C@H](C(=O)NN=Cc2ccc3cc(O)ccc3c2)Cc2c1[nH]c1ccccc21    10.3
O=C(O)/C=C/c1cc2c([nH]c3ccccc32)c(-c2cccnc2)n1    42.9

Quick one: Bactericidal activity (%) Fusarium graminearumt of Cc1nccc2c1[nH]c1cc(OC(=O)N(C)C)ccc12 ?
38.1

Next entry: Cc1nc(/C=C/C(=O)O)cc2c1[nH]c1ccccc12
14.3

Now consider C/C=C/C=NNC(=O)[C@@H]1Cc2c([nH]c3ccccc23)[C@H](C)N1 .
20.7

Now give it for C[C@@H]1N[C@H](C(=O)NN=Cc2ccc3c(c2)OCO3)Cc2c1[nH]c1ccccc21 too.
53.8

Proceed to CC(=NNC(=O)[C@@H]1Cc2c([nH]c3ccccc23)[C@H](C)N1)C(C)(C)C
53.8
